Please provide measured fluorescence slope for the entries that follow.
target: Voltage-gated potassium channel subunit beta-2 (Rattus norvegicus) (UniProt P62483); assay: KvBeta enzyme negative modulators, primary screen, biochemical, NADPH fluorescence (AID 622); conditions: recombinant KvBeta, 4-cyanobenzaldehyde reduction, at 10 µM, stronger effect = higher value;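 note: slope of raw intensity against log time taken from 70 to 1610 s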
Sequence (P62483 whole entry, looked up): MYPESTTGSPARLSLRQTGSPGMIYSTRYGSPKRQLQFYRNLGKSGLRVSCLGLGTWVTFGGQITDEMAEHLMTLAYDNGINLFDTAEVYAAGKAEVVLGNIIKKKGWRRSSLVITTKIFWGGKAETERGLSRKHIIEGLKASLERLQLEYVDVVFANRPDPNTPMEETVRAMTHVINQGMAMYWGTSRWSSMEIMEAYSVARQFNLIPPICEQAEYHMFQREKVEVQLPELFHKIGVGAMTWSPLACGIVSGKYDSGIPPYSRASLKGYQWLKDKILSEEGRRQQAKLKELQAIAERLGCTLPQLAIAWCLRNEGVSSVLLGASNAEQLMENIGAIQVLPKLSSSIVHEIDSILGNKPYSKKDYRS
Active and inactive are the calls of the source.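 Rule for the calls: active = fluorescence slope higher than the sample average by over 3 SD (cut at about -0.22 in these data, passing the limit was not always enough); inactive = the rest.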

Need fluorescence slope, item COc1ccc(CCNC(=O)C2CC(=O)N(c3ccccc3)C2)cc1OC (stereo unspecified) -0.452 (inactive)

Need fluorescence slope, item O=C(c1ccc(S(=O)(=O)N2CCOCC2)cc1)N(c1ccc(F)cc1)C1C=CS(=O)(=O)C1 (stereo unspecified) -0.288 (inactive)

Need fluorescence slope, item CCS(=O)(=O)N1CCCC(C(=O)NCc2cccc(OC)c2)C1 (stereo unspecified) -0.617 (inactive)

Need fluorescence slope, item `CCOC(=O)N1CCC(NC(=O)Cn2ncc3c4ccccc4n(C)c3c2=O)CC1` -0.28 (inactive)

Need fluorescence slope, item `CNc1oc(-c2ccccc2Cl)nc1C#N` -0.594 (inactive)

Need fluorescence slope, item `CCCc1cc(=O)oc2c(CN3CCCC3)c(O)ccc12` -0.0292 (inactive)

Need fluorescence slope, item `Nc1ccc2oc(-c3ccccc3Cl)nc2c1` -0.136 (inactive)

Need fluorescence slope, item COc1ccc(-c2[nH]nc3c2C(c2ccncc2)C(C#N)=C(N)O3)cc1 (stereo unspecified) -0.31 (inactive)

Need fluorescence slope, item `COc1ccccc1N1CCN(C(=O)c2ccc(S(=O)(=O)N3CCCCCC3)cc2)CC1` -0.606 (inactive)

Need fluorescence slope, item `CN(C)S(=O)(=O)NC(c1ccccc1)c1ccccc1` -0.413 (inactive)

Need fluorescence slope, item Cc1c(NC(=O)C2CCCCN2S(=O)(=O)c2ccc(Cl)cc2)c(=O)n(-c2ccccc2)n1C (stereo unspecified) -0.604 (inactive)

* * *

biological target: Muscarinic acetylcholine receptor M4 (Homo sapiens) (UniProt P08173); assay: compounds altering M4/GIRK thallium flux, either direction, primary screen, M4 allosteric agonist project, cell-based, HEK293 M4/GIRK, BTC-AM (AID 625); conditions: at 10 µM, actives lie on both sides;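 note: thallium influx through GIRK channels coupled to M4 in HEK293 cells with BTC-AM dye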
Sequence (P08173 whole entry, looked up): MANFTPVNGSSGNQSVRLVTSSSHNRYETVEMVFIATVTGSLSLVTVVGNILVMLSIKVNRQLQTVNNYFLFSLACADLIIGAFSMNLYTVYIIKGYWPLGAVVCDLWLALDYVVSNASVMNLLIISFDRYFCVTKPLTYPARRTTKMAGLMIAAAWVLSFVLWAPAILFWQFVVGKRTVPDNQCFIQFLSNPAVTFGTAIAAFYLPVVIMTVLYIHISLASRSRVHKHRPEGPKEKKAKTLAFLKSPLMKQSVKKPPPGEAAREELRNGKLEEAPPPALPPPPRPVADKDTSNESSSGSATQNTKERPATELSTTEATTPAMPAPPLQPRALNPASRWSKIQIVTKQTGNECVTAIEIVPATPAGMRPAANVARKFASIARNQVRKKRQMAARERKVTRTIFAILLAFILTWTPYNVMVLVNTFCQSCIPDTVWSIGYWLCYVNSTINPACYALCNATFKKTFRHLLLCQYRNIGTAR
Mark yes (1) for fluorescence slope under 0.006, no (0) if at or over.

Identify whether the compound O=C(CC(c1ccco1)S(=O)(=O)c1ccccc1)c1ccc(F)cc1 (centres undefined) records fluorescence slope below 0.006. yes (1)

Identify whether the compound `COc1cccc(OC)c1C(=O)Nc1nc2ccc(S(C)(=O)=O)cc2s1` records fluorescence slope below 0.006. yes (1)

Identify whether the compound CN1C(=O)C2(c3ccccc31)C1CCCC=C1C(C#N)=C(N)C2(C#N)C#N (centres undefined) records fluorescence slope below 0.006. yes (1)

Identify whether the compound O=C(CC1SC2=NCCN2C1=O)Nc1ccccc1 (centres undefined) records fluorescence slope below 0.006. yes (1)

Identify whether the compound `CCOC(=O)c1c(NC(=O)CN2CCOCC2)sc2c1CC(C)(C)OC2` records fluorescence slope below 0.006. yes (1)

Identify whether the compound `CSc1nc(C)c2c(c1C#N)CCCC2` records fluorescence slope below 0.006. yes (1)

Identify whether the compound `C(=N\n1cnnc1)/c1ccccn1` records fluorescence slope below 0.006. yes (1)

Identify whether the compound `COC(=O)[C@H]1CCCN1C(=O)Nc1cccc(Oc2c(F)c(F)c(F)c(F)c2F)c1` records fluorescence slope below 0.006. yes (1)

Identify whether the compound `CCCCCSc1nc(C)c(CC(=O)O)c(=O)[nH]1` records fluorescence slope below 0.006. yes (1)

Identify whether the compound COC(=O)C1CCN(c2nc3ccccc3nc2C(C#N)C(=O)NCCc2ccccc2)CC1 (centres undefined) records fluorescence slope below 0.006. yes (1)

Identify whether the compound `CC(NC(=O)Nc1ccc(O)cc1)(C(F)(F)F)C(F)(F)F` records fluorescence slope below 0.006. yes (1)

Identify whether the compound `Cc1cc(SCCC(=O)O)nc2ccccc12` records fluorescence slope below 0.006. no (0)

Identify whether the compound `CC(=O)N(Cc1ccccc1)c1ccc(C(=O)O)cc1` records fluorescence slope below 0.006. yes (1)

Identify whether the compound CC(O)(C#CCN1CCOCC1)c1ccccc1 (centres undefined) records fluorescence slope below 0.006. yes (1)

Identify whether the compound `CCOC(=O)c1cnn2c1[nH]c(=O)c1ccccc12` records fluorescence slope below 0.006. no (0)

Identify whether the compound `Cc1cc(C)n(CC(=O)c2ccccc2)c(=O)c1C#N` records fluorescence slope below 0.006. yes (1)

Identify whether the compound CCc1nc(NCC2CCCO2)c(C#N)c2c1COC(C)(C)C2 (centres undefined) records fluorescence slope below 0.006. no (0)
